- assayComment: chemical genetic growth profiling, strain panel (AID 1159580);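 further: tested at 20 µM; growth read once vehicle control cultures reached saturation at 30 °C; 1 = growth at the plate median or of vehicle wells; lower values mean less growth of the strain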
- conditionSummary: S. cerevisiae deletion strains, growth OD, locus YNR052C, strain pop2, hits give low values
Hit rate of the full screen: of about 5,500 compounds, about 2,000 (36%) were called active. Inconclusive results (about 18%) are left out. The list shows a part of the results.
Catalogue of normalized growth values
Give the figure only, with no unit attached.

Worked examples follow.
[
  {
    "compound": "CCCCCCCCCCCCCCCCCC(=O)OC(CC(=O)O)C[N+](C)(C)C (centres undefined)",
    "normalized growth": 0.961
  },
  {
    "compound": "NC(=O)NCC(N)C(=O)O (centres undefined)",
    "normalized growth": 0.991
  },
  {
    "compound": "CN1C(C)(C)CCCC1(C)C",
    "normalized growth": 0.982
  }
]

Problem: For the compound O=C(OC1Cc2c(O)cc(O)cc2OC1c1cc(=O)c(O)c2c(O)c(O)cc(C3Oc4cc(O)cc(O)c4CC3O)c2c1)c1cc(O)c(O)c(O)c1 (centres undefined) , what normalized growth is on record?
Solution: 0.648

Problem: Another compound to check: `COC(=O)c1c(C)cc(OC)cc1O`
Solution: 1

Problem: Another compound to check: `CCC/C=C1\OC(=O)C2=C1CCC=C2`
Solution: 1.01

Problem: Another compound to check: CC(=O)OC1CN2CCC1CC2 (centres undefined)
Solution: 0.989

Problem: Another compound to check: `CCOC(=O)c1c(C)cc(O)cc1O`
Solution: 0.949
